Taken from patent US20120245137A1.

The entries below come with measured pIC50 values attached.
Target: human α1H T-type channels (Homo sapiens, UniProt O95180)
Sequence (O95180 whole entry): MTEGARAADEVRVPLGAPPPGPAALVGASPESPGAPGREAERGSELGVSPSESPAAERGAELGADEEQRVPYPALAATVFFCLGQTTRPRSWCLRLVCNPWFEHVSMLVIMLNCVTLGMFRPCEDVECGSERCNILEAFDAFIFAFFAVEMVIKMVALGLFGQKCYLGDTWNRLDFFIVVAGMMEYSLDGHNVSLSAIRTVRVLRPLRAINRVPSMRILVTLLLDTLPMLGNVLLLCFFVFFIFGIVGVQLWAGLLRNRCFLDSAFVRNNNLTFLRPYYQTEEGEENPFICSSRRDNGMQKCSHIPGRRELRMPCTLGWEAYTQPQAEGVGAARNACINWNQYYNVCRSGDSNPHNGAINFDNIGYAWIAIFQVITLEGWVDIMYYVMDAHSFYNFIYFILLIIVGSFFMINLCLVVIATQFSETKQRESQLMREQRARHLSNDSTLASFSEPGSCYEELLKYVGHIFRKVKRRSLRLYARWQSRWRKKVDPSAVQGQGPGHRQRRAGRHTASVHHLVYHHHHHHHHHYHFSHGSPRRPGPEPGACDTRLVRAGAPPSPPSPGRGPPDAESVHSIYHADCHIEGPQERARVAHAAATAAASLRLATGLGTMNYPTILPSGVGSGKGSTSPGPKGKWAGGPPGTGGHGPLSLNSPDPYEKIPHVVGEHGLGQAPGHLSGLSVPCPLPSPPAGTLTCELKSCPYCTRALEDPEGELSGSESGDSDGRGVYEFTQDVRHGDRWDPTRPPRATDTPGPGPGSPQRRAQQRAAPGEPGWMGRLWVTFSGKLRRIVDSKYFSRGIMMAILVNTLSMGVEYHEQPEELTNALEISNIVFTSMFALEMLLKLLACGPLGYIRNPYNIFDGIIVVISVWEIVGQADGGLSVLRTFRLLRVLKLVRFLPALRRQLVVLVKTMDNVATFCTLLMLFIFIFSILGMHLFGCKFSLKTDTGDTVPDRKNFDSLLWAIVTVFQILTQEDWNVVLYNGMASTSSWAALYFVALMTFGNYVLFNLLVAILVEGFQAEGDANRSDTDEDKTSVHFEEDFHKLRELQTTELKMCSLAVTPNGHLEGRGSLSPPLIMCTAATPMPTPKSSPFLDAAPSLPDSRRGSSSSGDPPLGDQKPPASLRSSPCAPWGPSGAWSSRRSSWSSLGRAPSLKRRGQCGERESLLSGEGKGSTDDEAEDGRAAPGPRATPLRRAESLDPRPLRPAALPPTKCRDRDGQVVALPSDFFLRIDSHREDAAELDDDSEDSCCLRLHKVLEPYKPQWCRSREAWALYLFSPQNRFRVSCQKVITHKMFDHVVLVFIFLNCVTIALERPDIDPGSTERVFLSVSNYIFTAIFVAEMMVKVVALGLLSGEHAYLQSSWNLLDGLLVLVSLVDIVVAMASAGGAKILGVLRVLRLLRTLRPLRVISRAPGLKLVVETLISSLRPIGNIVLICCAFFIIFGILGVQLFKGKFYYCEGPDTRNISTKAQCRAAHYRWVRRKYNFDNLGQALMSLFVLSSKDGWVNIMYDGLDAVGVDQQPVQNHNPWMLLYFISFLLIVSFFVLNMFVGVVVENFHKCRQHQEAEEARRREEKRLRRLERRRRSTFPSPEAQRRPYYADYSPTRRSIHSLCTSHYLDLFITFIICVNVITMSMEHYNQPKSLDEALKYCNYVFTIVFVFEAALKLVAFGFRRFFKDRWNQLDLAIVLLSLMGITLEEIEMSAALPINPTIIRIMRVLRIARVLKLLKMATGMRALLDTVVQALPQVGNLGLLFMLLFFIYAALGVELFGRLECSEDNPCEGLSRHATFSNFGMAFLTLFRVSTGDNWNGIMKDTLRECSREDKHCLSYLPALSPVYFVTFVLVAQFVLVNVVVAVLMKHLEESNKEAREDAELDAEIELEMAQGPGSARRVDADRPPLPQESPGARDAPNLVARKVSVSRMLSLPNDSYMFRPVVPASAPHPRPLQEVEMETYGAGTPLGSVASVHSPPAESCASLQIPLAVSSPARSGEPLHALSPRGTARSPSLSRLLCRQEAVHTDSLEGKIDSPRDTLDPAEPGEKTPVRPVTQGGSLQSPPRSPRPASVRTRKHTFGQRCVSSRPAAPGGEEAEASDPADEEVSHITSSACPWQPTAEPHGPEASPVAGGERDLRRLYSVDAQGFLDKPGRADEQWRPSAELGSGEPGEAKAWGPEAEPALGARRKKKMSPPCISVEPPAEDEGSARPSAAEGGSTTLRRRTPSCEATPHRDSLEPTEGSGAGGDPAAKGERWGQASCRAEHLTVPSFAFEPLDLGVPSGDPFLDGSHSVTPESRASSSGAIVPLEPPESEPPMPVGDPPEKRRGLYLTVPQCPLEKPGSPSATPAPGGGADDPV
Assay: T-type calcium channel block, whole cell patch clamp, α1H
Conditions: HEK cells stably expressing human α1H; mainly non-inactivated protocol; values above 10,000 nM represented as 10000
pIC50: −log10 of the molar value.
Quantity Kind: pIC50

{"Compound": "CC1(S(=O)(=O)c2cccc(C(F)(F)F)c2)CCC(NC(=O)c2ccn(CC(F)(F)F)n2)CC1 (stereo not shown) [Compound 7]", "Result": "< 5.00"}
{"Compound": "Cn1nc(C(F)(F)F)cc1C(=O)NCCC(C)(C)S(=O)(=O)c1cc(F)cc(C(F)(F)F)c1 [Compound 535]", "Result": 5.38}
{"Compound": "O=C(N[C@H]1CC[C@H](CS(=O)(=O)c2cccc(C(F)(F)F)c2)CC1)c1cc(F)cc(C(F)(F)F)c1 [Compound 107]", "Result": "< 5.00"}
{"Compound": "CC1(CNCC(=O)NC(C)(C)C)CCC(F)(S(=O)(=O)c2cccc(C(F)(F)F)c2)CC1 (stereo not shown) [Compound 159]", "Result": "< 5.00"}
